- Tested on: 242566-281-R-J2-PDC complex spheroid viability
- MEASUREMENT_DESCRIPTION: Anticancer human tumor 242566-281-R-J2-PDC patient-derived pancreatic carcinoma cell line growth inhibition [RAS]
- MEASUREMENT_CONTEXT: second compound 0.01 µM; first compound 0.1 µM; stronger effect = lower value
MEASURED_QUANTITY: viability, T/C (%)
Give the value in % but do not write % after it.

(Q) Would you mind telling me what viability, T/C value was observed for Cc1nc(N2CCC3(CC2)COC(C)C3N)c(CO)nc1Sc1ccnc(N)c1Cl (stereo not drawn) + C=CC(=O)N1CCN(c2nc(OCC3CCCN3C)nc3c(F)c(-c4nc(N)cc(C)c4C(F)(F)F)c(Cl)cc23)C(C)C1 ?
(A) 120

(Q) Record: NC1c2ccccc2OC12CCN(c1cnc3c(N4CCCc5ncccc54)n[nH]c3n1)CC2 (stereo not drawn) + C=CC(=O)N1CCN(c2nc(OCC3CCCN3C)nc3c(F)c(-c4nc(N)cc(C)c4C(F)(F)F)c(Cl)cc23)C(C)C1
(A) 122

(Q) Try the compound CCN1CCN(Cc2ccc(Nc3ncc(F)c(-c4cc(F)c5nc(C)n(C(C)C)c5c4)n3)nc2)CC1 + C=CC(=O)N1CCN(c2nc(OCC3CCCN3C)nc3c(F)c(-c4nc(N)cc(C)c4C(F)(F)F)c(Cl)cc23)C(C)C1
(A) 88.8

----------
Measured pIC50 accompanies every entry in the list below.
- Tested on: 242566-281-R-J2-PDC complex spheroid viability
- MEASUREMENT_DESCRIPTION: Anticancer human tumor 242566-281-R-J2-PDC cell line growth inhibition [RAS];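 further: spheroids exposed to compound for 7 days before readout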
- MEASUREMENT_CONTEXT: curve of first compound; second compound 0.0949 µM
- Text: RAS pathway inhibitors in Combinations in Complex Spheroids A high-throughput screen of multi-cell type tumor spheroids was designed to identify active combinations of RAS pathway inhibitors and targeted small molecules. Complex spheroids include a stromal component modeled by human endothelial cells (HUVEC) and fibroblasts modeled by human mesenchymal stem cells (MSCs). […] Compounds. […] If the clinical Cmax for an agent had not been determined, the highest concentration tested was 10 microM. […]
pIC50: −log10 of the molar value.

Examples from the recorded data:
>  <COMPOUND>
CCC(CC)c1cc(NC2CCC(N)C2)n2nccc2n1 (centres undefined) + CCn1c(-c2cc(N3CCN(C)CC3)cnc2C(C)OC)c2c3cc(ccc31)-c1csc(n1)CC(NC(=O)C1CC1C)C(=O)N1CCCC(N1)C(=O)OCC(C)(C)C2

>  <pIC50>
> 7.50

$$$$
>  <COMPOUND>
Nc1ccn(C2OC(CO)C(O)C2(F)F)c(=O)n1 (centres undefined) + CCn1c(-c2cc(N3CCN(C)CC3)cnc2C(C)OC)c2c3cc(ccc31)-c1csc(n1)CC(NC(=O)C1CC1C)C(=O)N1CCCC(N1)C(=O)OCC(C)(C)C2

>  <pIC50>
> 8.50

$$$$
>  <COMPOUND>
C[C@@H](NC(=O)c1ncnc(N)c1Cl)c1ncc(C(=O)Nc2cc(C(F)(F)F)c(Cl)cn2)s1 + CCn1c(-c2cccnc2C(C)OC)c2c3cc(ccc31)N1CCOC(CC(NC(=O)C(C(C)C)N(C)C(=O)C3(F)CCN(C(=O)C#CC(C)(C)N(C)C)CC3)C(=O)N3CCCC(N3)C(=O)OCC(C)(C)C2)C1

>  <pIC50>
< 5.00

$$$$

Now consider a different compound.
(Q) // returns reported pIC50 for input CC1(O)CCCC1n1c(=O)c(C(F)F)cc2cnc(NC3CCN(S(C)(=O)=O)CC3)nc21 (centres undefined) + CCn1c(-c2cccnc2C(C)OC)c2c3cc(ccc31)N1CCOC(CC(NC(=O)C(C(C)C)N(C)C(=O)C3(F)CCN(C(=O)C#CC(C)(C)N(C)C)CC3)C(=O)N3CCCC(N3)C(=O)OCC(C)(C)C2)C1
(A) < 5.00

----------
- System: 242566-281-R-J2-PDC complex spheroid viability
- MEASUREMENT_DESCRIPTION: Anticancer human tumor 242566-281-R-J2-PDC cell line growth inhibition [RAS];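 further: spheroids exposed to compound for 7 days before readout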;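 on viability, T/C: 100% = DMSO vehicle control wells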
- MEASUREMENT_CONTEXT: second compound 0.1 µM; first compound 3.16 µM; stronger effect = lower value
Each record gets a class by viability, T/C: bottom range: < 50%; center range: ≥ 50% and < 80%; top range: ≥ 80%

Would you please look over these solved cases?
>  <COMPOUND>
CC1(O)CCCC1n1c(=O)c(C(F)F)cc2cnc(NC3CCN(S(C)(=O)=O)CC3)nc21 (centres undefined) + C=CC(=O)N1CCN(c2nc(OCC3CCCN3C)nc3c(F)c(-c4nc(N)cc(C)c4C(F)(F)F)c(Cl)cc23)C(C)C1

>  <TESTED_SYSTEM>
242566-281-R-J2-PDC complex spheroid viability

>  <CATEGORY>
top range

$$$$
>  <COMPOUND>
NC1c2ccccc2OC12CCN(c1cnc3c(N4CCCc5ncccc54)n[nH]c3n1)CC2 (centres undefined) + C=CC(=O)N1CCN(c2nc(OCC3CCCN3C)nc3c(F)c(-c4nc(N)cc(C)c4C(F)(F)F)c(Cl)cc23)C(C)C1

>  <TESTED_SYSTEM>
242566-281-R-J2-PDC complex spheroid viability

>  <CATEGORY>
center range

$$$$
>  <COMPOUND>
CC1(O)CCCC1n1c(=O)c(C(F)F)cc2cnc(NC3CCN(S(C)(=O)=O)CC3)nc21 (centres undefined) + C#Cc1c(F)ccc2cc(O)cc(-c3ncc4c(N5CC6CCC(C5)N6)nc(OCC56CCCN5CC(F)C6)nc4c3F)c12

>  <TESTED_SYSTEM>
242566-281-R-J2-PDC complex spheroid viability

>  <CATEGORY>
top range

$$$$
>  <COMPOUND>
C[C@@H](NC(=O)c1ncnc(N)c1Cl)c1ncc(C(=O)Nc2cc(C(F)(F)F)c(Cl)cn2)s1 + C#Cc1c(F)ccc2cc(O)cc(-c3ncc4c(N5CC6CCC(C5)N6)nc(OCC56CCCN5CC(F)C6)nc4c3F)c12

>  <TESTED_SYSTEM>
242566-281-R-J2-PDC complex spheroid viability

>  <CATEGORY>
center range

$$$$
>  <COMPOUND>
CCC(CC)c1cc(NC2CCC(N)C2)n2nccc2n1 (centres undefined) + C#Cc1c(F)ccc2cc(O)cc(-c3ncc4c(N5CC6CCC(C5)N6)nc(OCC56CCCN5CC(F)C6)nc4c3F)c12

>  <TESTED_SYSTEM>
242566-281-R-J2-PDC complex spheroid viability

>  <CATEGORY>
bottom range

$$$$
>  <COMPOUND>
Cc1nc(N2CCC3(CC2)COC(C)C3N)c(CO)nc1Sc1ccnc(N)c1Cl (centres undefined) + C=CC(=O)N1CCN(c2nc(OCC3CCCN3C)nc3c(F)c(-c4nc(N)cc(C)c4C(F)(F)F)c(Cl)cc23)C(C)C1

>  <TESTED_SYSTEM>
242566-281-R-J2-PDC complex spheroid viability

>  <CATEGORY>
top range

$$$$

(Q) Band assignment needed for CC(=O)OC12COC1CC(O)C1(C)C(=O)C(O)C3=C(C)C(OC(=O)C(O)C(NC(=O)OC(C)(C)C)c4ccccc4)CC(O)(C(OC(=O)c4ccccc4)C21)C3(C)C (centres undefined) + C#Cc1c(F)ccc2cc(O)cc(-c3ncc4c(N5CC6CCC(C5)N6)nc(OCC56CCCN5CC(F)C6)nc4c3F)c12 please.
(A) center range

(Q) Cool, now CC(=O)OC12COC1CC(O)C1(C)C(=O)C(O)C3=C(C)C(OC(=O)C(O)C(NC(=O)OC(C)(C)C)c4ccccc4)CC(O)(C(OC(=O)c4ccccc4)C21)C3(C)C (centres undefined) + C=CC(=O)N1CCN(c2nc(OCC3CCCN3C)nc3c(F)c(-c4nc(N)cc(C)c4C(F)(F)F)c(Cl)cc23)C(C)C1
(A) bottom range

(Q) Field entry: CC(C)NCC(C(=O)N1CCN(c2ncnc3c2C(C)CC3O)CC1)c1ccc(Cl)cc1 (centres undefined) + C#Cc1c(F)ccc2cc(O)cc(-c3ncc4c(N5CC6CCC(C5)N6)nc(OCC56CCCN5CC(F)C6)nc4c3F)c12
(A) center range

----------
- Tested on: 242566-281-R-J2-PDC complex spheroid viability
- MEASUREMENT_DESCRIPTION: Anticancer human tumor 242566-281-R-J2-PDC cell line growth inhibition [RAS];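 further: spheroids exposed to compound for 7 days before readout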
- MEASUREMENT_CONTEXT: curve of first compound; second compound 0.0949 µM
- From the text: RAS pathway inhibitors in Combinations in Complex Spheroids A high-throughput screen of multi-cell type tumor spheroids was designed to identify active combinations of RAS pathway inhibitors and targeted small molecules. Complex spheroids include a stromal component modeled by human endothelial cells (HUVEC) and fibroblasts modeled by human mesenchymal stem cells (MSCs). […] Compounds. […] If the clinical Cmax for an agent had not been determined, the highest concentration tested was 10 microM. […]
MEASURED_QUANTITY: IC50

>  <COMPOUND>
CC1(C)CCC(Nc2ncc(C(F)(F)F)c(-c3c[nH]c4c(P(C)(C)=O)c(C#N)ccc34)n2)CN1 (centres undefined) + CCn1c(-c2cccnc2C(C)OC)c2c3cc(ccc31)N1CCOC(CC(NC(=O)C(C(C)C)N(C)C(=O)C3(F)CCN(C(=O)C#CC(C)(C)N(C)C)CC3)C(=O)N3CCCC(N3)C(=O)OCC(C)(C)C2)C1

>  <IC50>
> 300 nM

$$$$

(Q) Give 242566-281-R-J2-PDC complex spheroid viability IC50 for CCC(CC)c1cc(NC2CCC(N)C2)n2nccc2n1 (centres undefined) + CCn1c(-c2cccnc2C(C)OC)c2c3cc(ccc31)N1CCOC(CC(NC(=O)C(C(C)C)N(C)C(=O)C3(F)CCN(C(=O)C#CC(C)(C)N(C)C)CC3)C(=O)N3CCCC(N3)C(=O)OCC(C)(C)C2)C1
(A) 1670 nM

(Q) Also, Cc1nc(N2CCC3(CC2)COC(C)C3N)c(CO)nc1Sc1ccnc(N)c1Cl (centres undefined) + CCn1c(-c2cc(N3CCN(C)CC3)cnc2C(C)OC)c2c3cc(ccc31)-c1csc(n1)CC(NC(=O)C1CC1C)C(=O)N1CCCC(N1)C(=O)OCC(C)(C)C2 please.
(A) < 31.6 nM

(Q) And the next one, CCN1CCN(Cc2ccc(Nc3ncc(F)c(-c4cc(F)c5nc(C)n(C(C)C)c5c4)n3)nc2)CC1 + CCn1c(-c2cc(N3CCN(C)CC3)cnc2C(C)OC)c2c3cc(ccc31)-c1csc(n1)CC(NC(=O)C1CC1C)C(=O)N1CCCC(N1)C(=O)OCC(C)(C)C2 ?
(A) < 3.16 nM
